READOUT LABEL: logP

1. O=Cc1ccc(O)c(Br)c1 :: 1.83
2. O=Cc1ccc(O)c(O)c1 :: 1.09
3. COc1cc(C=O)cc(OC)c1OC :: 1.39
4. CC(C)OC(=O)COc1ccc(C=O)cc1 :: 1.88
5. O=Cc1cccc(O)c1 :: 1.29
6. O=Cc1cc(Br)ccc1Br :: 3.35
7. CCOc1ccc(C=O)cc1OC :: 1.63
8. O=Cc1cc(O)ccc1O :: 0.54
9. O=Cc1cc(O)cc(Br)c1 :: 2.5
10. COc1ccc(OC)c(C=O)c1 :: 1.91

----------
Conditions: 25 °C
Label scheme for solubility: lower than 5 mM is false, 5 mM and above is true.

1. COc1ccc(OC)c(C=O)c1 :: false
2. COc1ccc(C=O)cc1OC :: true
3. O=Cc1cc(O)cc(Br)c1 :: false
4. O=Cc1cc(O)ccc1O :: true
5. O=Cc1ccc(O)c(Br)c1 :: true
6. O=Cc1cc(Br)ccc1Br :: false
7. O=Cc1ccc(O)cc1 :: true

Every entry's value here was drawn from the OPERA property sets (Mansouri et al. 2018).
